TEST_TARGET: CREB3L1 (Homo sapiens, UniProt Q96BA8)
Construct: made in house
Sequence (Q96BA8 290-353 limits assumed): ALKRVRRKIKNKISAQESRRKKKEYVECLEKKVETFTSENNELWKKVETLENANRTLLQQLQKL
ASSAY_DETAILS: Direct-binding FRET assay
CONDITION_INFO: 4°C; N-terminal rhodamine design; mean or single
Where no end group is shown, it is not given here.
OUTCOME_MEASURE: Kd

Ask: Can you share its Kd? I mean this sequence: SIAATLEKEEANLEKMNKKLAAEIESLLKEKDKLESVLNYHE [JUN-d1]
Reply: > 1000 nM
